Entries annotated with measured composite z-score
target: Follistatin (Homo sapiens); test: follistatin binders on small-molecule microarrays, primary screen, biochemical, small-molecule microarray, 635/667 nm fluorescence (AID 1132); details: FST binding, 635 nm fluorescence, higher = more signal
Enter a number only.

| compound | readout type | endpoint value |
| --- | --- | --- |
| C=C/C=C/[C@H]1C(=C)CN([C@@H](Cc2ccccc2)C(=O)OC)[C@@H]1[C@H](O)Cc1ccccc1 | composite z-score | 0.174 |
| C=CCN1C(=O)[C@]2(O[C@H](CCO)[C@@H]([Si](C)(C)c3ccc(OC)cc3)[C@@H]2C)c2cc(N3C(=O)c4cccc5cccc3c45)ccc21 | composite z-score | 0.644 |
| C=C(COC)/C(=C/C[C@H](OC(=O)c1ccncc1)c1ccc(OCCO)cc1)c1cnc2ccccc2c1 | composite z-score | 1.38 |
| COC(=O)[C@@]1(Cc2ccc(OC)cc2)[C@H]2c3cc(C(=O)N(C)C)n(CCN4CNCC4=O)c3C[C@H]2CN1C(=O)c1ccccc1 | composite z-score | -0.589 |
| C=CCC(OC(C)=O)[C@@H]1[C@@H](N(Cc2ccc(-c3ccccc3)cc2)C(=O)Cc2ccc(F)cc2)c2cc(OCCCO)ccc2N1C(=O)c1ccc(-c2ccccc2)cc1 (some centres not stated) | composite z-score | 0.267 |
| COC(=O)c1c(CC[C@@H](CO)NC(=O)N[C@H](Cn2cc(Cc3ccccc3)nn2)C(C)C)oc(C(C)=O)c1C(=O)OC | composite z-score | 1.29 |

We next turn to a different compound, shown below.
Asked: Query composite z-score on Follistatin (Homo sapiens) for COc1cc(CO)cc(I)c1O[C@H]1C=C(C(=O)NCCO)C[C@@H](N(CCN2CCOCC2)C(=O)C2CCOC2)[C@@H]1O (some centres not stated)
Given back: 0.581

###

system: Chordin-like protein 2 (CHRDL2); assay: CHRDL2 small-molecule binders, primary screen, biochemical, small-molecule microarray, 635 nm fluorescence (AID 1126); conditions: small-molecule microarray binding, fluorescence 635 nm; higher = more signal;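 further: printed compound slides probed with Chrdl2 protein at 4 µg/mL for 1 h at 4 C; score merges 667 nm emission intensity with signal to noise over three replicate slides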
readout type: composite z-score
Enter a number only.

| compound | target desc | endpoint value |
| --- | --- | --- |
| CCOC(=O)C[C@H]1[C@H](OC(=O)Cc2ccc3c(c2)OCO3)[C@@H](NC(=O)c2ccc3ccccc3c2)c2cc(OCCCO)ccc2N1C(=O)c1ccccc1 | Chordin-like protein 2 (CHRDL2) | 0.308 |

Asked: # get_value(readout='composite z-score', item= C=CC[C@@]1(C(N)=O)N=C(c2ccc(OCCCO)cc2)O[C@@H]1c1ccccc1CN=[N+]=[N-] )
Given back: -0.41

Asked: # get_value(readout='composite z-score', item= O=C1NC(=O)C2C1C=CC(C(O)Cc1ccccc1)N2Nc1ccc(Cl)cc1Cl (configuration not stated) )
Given back: -1.15

Asked: # get_value(readout='composite z-score', item= COCCCN1C(=O)[C@@]2(Cc3ccccc31)c1ccccc1C(=O)N(Cc1ccccc1C(F)(F)F)[C@H]2c1ccc(CO)cc1 )
Given back: 1.09

Asked: # get_value(readout='composite z-score', item= O=C1C2C=CC(C(O)C3CCCCC3)N(Nc3ccc([N+](=O)[O-])cc3)C2C(=O)N1c1ccccc1 (configuration not stated) )
Given back: -1.2

Asked: # get_value(readout='composite z-score', item= COC(=O)[C@@]1(Cc2ccccc2)[C@H]2c3cc(C(=O)N4CCCC4)n(Cc4nc5ccccc5[nH]4)c3C[C@H]2CN1C(=O)c1ccccc1 )
Given back: -0.72

Asked: # get_value(readout='composite z-score', item= C=CCC(OC(C)=O)[C@@H]1[C@@H](N(Cc2ccc(-c3cccc(C(F)(F)F)c3)o2)C(=O)Cc2ccc(F)cc2)c2cc(OCCCO)ccc2N1C(=O)Cc1ccc(OC)cc1 (some centres not stated) )
Given back: 0.149

Provenance of the data: PubChem BioAssay
